Experiment Summary: SK-BR-3 cell growth inhibitors, pilot screen, 24 h, human (AID 572);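 note: compound exposure lasted between 18 and 24 h rather than exactly 24 h; 100% = carrier-treated control wells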
Experimental Context: SK-BR-3 viability, CellTiter-Glo luminescence, at 10 µM, stronger effect = lower value
viability reference
Expressed in %, but write only the number.

CSc1oc(-c2ccccc2)nc1S(=O)(=O)c1ccc(F)cc1    92
CCN(CC(=O)Nc1ccc2c(c1)OCCO2)Cc1cc(=O)oc2cc(C)c(C)cc12    93

Return reported viability; argument: `CN(CC(=O)Nc1sccc1C#N)C1CCCCC1`
106

Which value of viability has been reported for `CC(C)Cc1n[nH]c(=O)[nH]1` in the records?
118

Which viability is reported for this compound? O=C(NS(=O)(=O)c1ccc(NC(=O)C2CCCO2)cc1)c1ccccc1 (centres undefined)
79

====

Overview of reported inhibition across a group of compounds:
Experiment Summary: growth suppression of yeast trafficking mutant, preliminary HTS, modulators of trafficking downstream of Golgi apparatus project, 1536-format plate, OD 615 nm (AID 637)
Experimental Context: yeast transport mutant growth, absorbance 615 nm, 18 h; stronger effect = higher value
Quick note: give the figure in %, leave out the unit.

COc1cc(C2c3c(n[nH]c3C)C(=O)N2c2ccc(C)cc2)ccc1O (stereo unspecified)    -2.3

Tell me the measured inhibition of CC(C)COC(=O)C(C#N)c1nc2ccccc2nc1N1CCN(Cc2ccccc2)CC1 (stereo unspecified) , please.
14.3

Name the recorded inhibition for `CN(C(=O)c1ccccn1)c1nnc(-c2cccnc2)s1` .
-2.26

Any idea what inhibition was measured for `Nc1nc(SCCOc2ccccc2)n[nH]1` ?
-5.24

What measured inhibition goes with `CCOC(=O)c1[nH]c(C)c(C(=O)Nc2ccccc2C)c1C` ?
3.67

Request the reported inhibition associated with COc1ccccc1CNC(=O)C(C)NS(=O)(=O)c1ccccc1 (stereo unspecified)
-0.73

====

Experiment Summary: growth suppression of yeast trafficking mutant, preliminary HTS, modulators of trafficking downstream of Golgi apparatus project, 1536-format plate, OD 615 nm (AID 637)
Experimental Context: yeast transport mutant growth, absorbance 615 nm, 18 h; stronger effect = higher value
List of inhibition values.
State just the number; it will be interpreted in %.

Example compounds with recorded inhibition:
Cc1cc(NS(=O)(=O)c2ccc(NC(=O)COc3ccc(Cl)cc3)cc2)no1    -5.27
C=CCn1c(SCn2nnc3ccccc3c2=O)nnc1-c1ccc(Br)cc1    31.6
CN(CC(=O)N1CCN(C2CCCCC2)CC1)S(=O)(=O)c1cccc2nsnc12    6.23
COc1ccc(Nc2ncc3c(n2)CC(c2ccc(OC)cc2)CC3=O)cc1 (stereo unspecified)    4.92
CC(CC(=O)NCc1ccccc1)C1CCCO1 (stereo unspecified)    4.75
O=S(=O)(NCc1ccccn1)c1ccc2c(c1)OCCO2    0.18
CCOC(=O)c1c(C)oc2c1c(C=NCc1ccccn1)c(O)c1ccccc12    3.67
COC(=O)c1cc(Oc2ccc(C(=O)OC)cc2N)cc(C(=O)OC)c1    -5.82

// lookup inhibition for O=C(O)c1ccc(C2SCC(=O)N2Cc2ccccc2)cc1 (stereo unspecified)
0

Need inhibition of `N#C/C(=C(/O)COC(=O)CCC1CCCCC1)c1nc2ccccc2[nH]1` , thanks.
2.3

Would you kindly share the measured inhibition for `Cc1nn(-c2ccccc2)c2c1C(=O)NC(=O)C(C)(C)C2` ?
-1.27
